Consider the following sequences; for each one, report its folding stability dG unfold.
Assay: folding stability dG unfold from trypsin proteolysis; higher = more stable
Field: numeric (kcal/mol). Do not append units.

Prompt: # folding stability dG unfold lookup, item SAGGSVTITSITSIDTSSLSPDSVVTADVPDGKPVLIKGKVPPDGSVILTFYTPDGKPVATFTIPSSAGGSA [r2_323_JUSTAS]
Completion: 0.508

Prompt: # folding stability dG unfold lookup, item SERLKLKITIKNANGETYEVEIEFDLETNELTIKVKPVPALPPVTEKRVVKKDGKLVEETRTVLLSEEDLSA [r9_587_TrROS_Hall]
Completion: 1.02

Prompt: # folding stability dG unfold lookup, item SAGGSAKEVKIKFTRNPDGTLTMEITFEDGYVIRKTFTVKNGKLTEKVEVFPVKLDPETGKLVLLPSAGGSA [r15_746_TrROS_Hall]
Completion: 2.52

Prompt: # folding stability dG unfold lookup, item SAGGSAMIELEIKLPKEEAEKIAEELAKKLAEELGLEVKVVDVEIEYDPETDEVTIRVKIEVEPEPSAGGSA [r15_70_TrROS_Hall]
Completion: 2.68

Prompt: # folding stability dG unfold lookup, item SAMKYTITVKGDIESVRNFLLDKLDFDIEVSSTPDGTTVITITMDEEKVSELKELLKAHPNFPTTVNKESAG [r14_521_JUSTAS]
Completion: 2.75

Prompt: # folding stability dG unfold lookup, item SAGGSAGGPVVISVPALVKLAKELGLKLVFFPETKTVILEHPDSFLIATIDSKGNVSIAPALPESAGGSAGG [r6_155_TrMRF]
Completion: 2.69

Prompt: # folding stability dG unfold lookup, item SAGGNKGKTIQINFMIDPEDPEMMIEKISKWLQAKGFKIESIEPRPVGNRWMYSATFRVPNGREITIWSAGG [r13_421_TrROS]
Completion: 1.76

Prompt: # folding stability dG unfold lookup, item SAGGSAGGSAGGSFEVVSVDETVTVPPGATVTIVVRDENGKLLTFTFEVRLVPPPPEEESAGGSAGGSAGGS [r10_573_TrROS_Hall]
Completion: 1.58

Prompt: # folding stability dG unfold lookup, item SAGGSAGGMTKTEVTVTVEKVPDGTYVVKTTKTTTTTNPDGTLTSSTTTTTKTVTPEELAAVLASAGGSAGG [r6_974_JUSTAS]
Completion: 3.7
